Examples of compounds with documented %Inh follow.
test system: STK35; conditions: concentration: 1 μM, replicates: in singlicate; n = 1;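 further: KINOMEscan kinase panel screen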
MEASUREMENT LABEL: %Inh (%)

> print(dat)
                                    compound  measurement.label  result.value
 1  Clc1ccc(-c2cc(-c3c[nH]nc3-c3ccccn3)ccn2)cc1               %Inh             0
 2  COc1ccc(NC(=O)Nc2ccc(C)c(-c3ccc(C(=O)Nc4ccncc4)cc3)c2)cc1               %Inh             0
 3      Nc1nc(-c2cccnc2)c(-c2ccnc3ccccc23)s1               %Inh             0
 4  Cc1cc(N2CCC(NS(=O)(=O)c3ccc(F)cc3)CC2)nc(Nc2cccc(C#N)c2)n1.O=C(O)C(F)(F)F               %Inh             0
 5  Nc1nccc2scc(-c3ccc4c(c3)CCN4C(=O)Cc3cc(F)ccc3F)c12               %Inh             0
 6  Fc1ccc(Nc2nccc(-c3c(-c4ccc(Cl)cc4)nn4ncccc34)n2)cc1F               %Inh             0
 7   Clc1cc(Nc2ncnc3cc[nH]c23)ccc1OCc1ccccn1               %Inh             0
 8  Cc1ccc(C)c(NC(=O)NCCNc2ccnc(Nc3ccc(F)cc3)n2)c1               %Inh             0
 9  Cl.Fc1ccccc1COc1ccc(Nc2ncnc3ccc(-c4nnc(C(F)(F)F)o4)cc23)cc1Cl               %Inh             0
10    Clc1cccc(-c2nc(Nc3ccncc3)c3ccccc3n2)c1               %Inh             0
11    Oc1ccc2ncnc(Nc3ccc(OCc4ccccc4)cc3)c2c1               %Inh             7
12               CCC(CC)(CC)n1cnc2c(N)ncnc21               %Inh             0
13      COc1ccc(-c2nc3n(c2-c2ccncc2)CCC3)cc1               %Inh             0
14   O=C(Nc1ccccc1)Nc1ccc(Oc2ccc3nccn3n2)cc1               %Inh             0
15  O=C(c1ccc(-c2cc(-c3c[nH]nc3-c3ccccn3)ccn2)cc1)N1CCCC1               %Inh             0
16  COc1cc2ncnc(Nc3ccc(OCc4ccccc4Br)c(Cl)c3)c2cc1OC.Cl               %Inh            18
17  Nc1nc(-c2ccc3c(N)n[nH]c3c2)cc(N2CCC[C@@H](C(=O)Nc3ccccc3)C2)n1.O=C(O)C(F)(F)F.O=C(O)C(F)(F)F               %Inh             0
18  C[C@@H]1CCN(C(=O)CO)C[C@@H]1N(C)c1ncnc2[nH]ccc12               %Inh             4
19  CNc1nccc(-c2c(-c3ccc(F)cc3)ncn2C2CCN(C)CC2)n1               %Inh             0
20  CSc1nn2c(=O)cc(N3CCOCC3)nc2n1Cc1cccc(Cl)c1Cl               %Inh            65
21  Cl.c1ccc(Cn2ncc3cc(Nc4ncnc5ccccc45)ccc32)cc1               %Inh             0
22  Cl.Cl.c1ccc(-c2cc3ccncc3cc2OC2CCNCC2)cc1               %Inh             0
23  CCCc1ccc(S(=O)(=O)NC2CCN(c3ccnc(Nc4ccc(OC)cc4)n3)C2)cc1 (stereo not drawn)               %Inh             0
24  Fc1ccc(-c2ncn(CCCNCc3ccccc3)c2-c2ccncc2)cc1               %Inh             0
25  FC(F)(F)c1ccc(-c2cc(-c3c[nH]nc3-c3ccccn3)ccn2)cc1               %Inh             0
26   CSc1ccc(NC2=C(c3ccccc3Cl)C(=O)NC2=O)cc1               %Inh             5
27  O=C(Nc1ccccc1F)NC1CCN(c2ccnc(Nc3ccc(F)cc3)n2)C1 (stereo not drawn)               %Inh             0
28  COC(=O)c1c(-c2ccccc2)c2cc(Cl)ccc2c(=O)n1Cc1ccc(S(C)(=O)=O)cc1               %Inh            15
29  CCc1nc(-c2cccc(C)c2)c(-c2ccnc(NC(=O)c3ccccc3)c2)s1               %Inh             0
30  Cc1ccc(NC(=O)c2cccc(C#N)c2)cc1-c1ccc(C(=O)Nc2ccncc2)cc1               %Inh             5
31  c1ccc(-c2ccc3c(-c4ccnc(Nc5ccc6c(c5)OCCO6)n4)cnn3n2)cc1               %Inh             8
32       CC(C)(C)c1ccc(-n2cnc3c(N)ncnc32)cc1               %Inh            11
33  COc1ccc(-c2oc3ncnc(N)c3c2-c2ccc(OC)cc2)cc1               %Inh             0
34  C[C@H]1CC[C@@H](C(=O)Nc2ccccc2)CN1c1cc(-c2ccc3c(N)n[nH]c3c2)nc(N)n1               %Inh             0
35  CC(C)N1CCC(n2cnc(-c3ccc(F)cc3)c2-c2ccnc(N)n2)CC1               %Inh             0
36  FC(F)(F)c1cc(Nc2nccc(-c3c(-c4ccc(Cl)cc4)nn4ncccc34)n2)ccc1Cl               %Inh             0
